Sourced from ChEMBL document CHEMBL1799919

- System: M21
- ASSAY_COMMENT: Cell cycle arrest in human M21 cells assessed as accumulation at G0/G1 phase at 5 times IC50 after 24 hrs using propidium iodide staining by flow cytometric analysis (reference value: 61%)
- Type: functional
MEASUREMENT_LABEL: Activity (%)
Write it as a number; the unit % goes unstated.

Worked examples follow.
[[record]]
compound = "COc1cccc(OS(=O)(=O)c2ccc(N3CCNC3=O)cc2)c1"
reading = 1

[[record]]
compound = "COc1cc(OC)cc(OS(=O)(=O)c2ccc(N3CCNC3=O)cc2)c1"
reading = 1

[[record]]
compound = "O=C1NCCN1c1ccc(S(=O)(=O)Oc2cc(F)cc(F)c2)cc1"
reading = 12


Q: Answer with the recorded Activity of O=C1NCCN1c1ccc(S(=O)(=O)Oc2ccc(F)c(F)c2)cc1 only.
A: 2

Q: // Input: O=C1NCCN1c1ccc(S(=O)(=O)Oc2cccc(Cl)c2)cc1 . Output its Activity only.
A: 2

Q: Please indicate Activity recorded for O=C(NCCCl)Nc1cccc(CCCCCO)c1
A: 1

Q: Using known records, supply Activity for COc1ccc(OS(=O)(=O)c2ccc(N3CCNC3=O)cc2)cc1OC
A: 1

Q: Please give the documented Activity of Cc1cccc(OS(=O)(=O)c2ccc(N3CCNC3=O)cc2)c1
A: 1

Q: Identify measured Activity corresponding to COc1ccc(/C=C\c2cc(OC)c(OC)c(OC)c2)cc1O [COMBRETASTATIN A4]
A: 2

Q: Look up Activity of Cc1cccc(OS(=O)(=O)c2ccc(N3CCNC3=O)cc2)c1C and report it.
A: 5

Q: Consider the compound CCOc1ccc(OS(=O)(=O)c2ccc(N3CCNC3=O)cc2)cc1 . State its measured Activity.
A: 2

* * *

- System: CHO-TAX 5-6
- ASSAY_COMMENT: Resistant ratio of IC50 for paclitaxel-resistant CHO-TAX 5-6 cells to IC50 for CHO cells
- Format: functional, Cricetulus griseus
MEASUREMENT_LABEL: Ratio IC50
Respond using a number only.

Q: Fetch value of Ratio IC50 on CHO-TAX 5-6 for COc1ccc(OS(=O)(=O)c2ccc(N3CCNC3=O)cc2)cc1 .
A: 0.83

* * *

- Test system: M21
- ASSAY_COMMENT: Cell cycle arrest in human M21 cells assessed as accumulation at S phase at 5 times IC50 after 24 hrs using propidium iodide staining by flow cytometric analysis (reference value: 30%)
- Format: functional
Output Fulfilled for Activity not less than 20%; output Not fulfilled otherwise.

[[record]]
compound = "Cc1ccccc1OS(=O)(=O)c1ccc(N2CCNC2=O)cc1"
answer_label = "Not fulfilled"

[[record]]
compound = "CCCc1ccccc1OS(=O)(=O)c1ccc(N2CCNC2=O)cc1"
answer_label = "Not fulfilled"


Q: Given O=C1NCCN1c1ccc(S(=O)(=O)Oc2ccccc2Cl)cc1 , state whether its Activity is at least 20%.
A: Not fulfilled

Q: Could you please find out whether O=C1NCCN1c1ccc(S(=O)(=O)Oc2cccc([N+](=O)[O-])c2)cc1 has Activity that meets 20% or exceeds it?
A: Not fulfilled

Q: Threshold query (Activity >= 20%) on O=C1NCCN1c1ccc(S(=O)(=O)Oc2ccc(F)cc2F)cc1
A: Fulfilled

Q: Could you please find out whether Cc1ccc(OS(=O)(=O)c2ccc(N3CCNC3=O)cc2)cc1 has Activity that meets 20% or exceeds it?
A: Not fulfilled

Q: Please tell me: is the compound Cc1cc(C)cc(OS(=O)(=O)c2ccc(N3CCNC3=O)cc2)c1 at or over 20% in terms of Activity?
A: Fulfilled

Q: Could you tell me if the measured Activity of CCCOc1ccc(OS(=O)(=O)c2ccc(N3CCNC3=O)cc2)cc1 reaches 20% or more?
A: Not fulfilled

Q: Dear colleague, could you confirm whether CCOc1ccccc1OS(=O)(=O)c1ccc(N2CCNC2=O)cc1 has Activity at or above 20%?
A: Not fulfilled

Q: Does the compound O=C1NCCN1c1ccc(S(=O)(=O)Oc2ccccc2I)cc1 have recorded Activity that is 20% or more?
A: Fulfilled

Q: Does Activity meet or surpass 20% for COc1cc(OC)cc(OS(=O)(=O)c2ccc(N3CCNC3=O)cc2)c1 ?
A: Fulfilled

Q: Answer whether Activity of CCOc1ccc(OS(=O)(=O)c2ccc(N3CCNC3=O)cc2)cc1 is greater than or equal to 20%.
A: Fulfilled

Q: Reported Activity at or above 20%? CCCc1ccc(OS(=O)(=O)c2ccc(N3CCNC3=O)cc2)cc1
A: Not fulfilled

Q: Exam item: decide whether the reported Activity for O=C1NCCN1c1ccc(S(=O)(=O)Oc2ccc(Cl)cc2)cc1 is at least 20%.
A: Not fulfilled

Q: Hello, I need to know if O=C1NCCN1c1ccc(S(=O)(=O)Oc2ccc3[nH]ccc3c2)cc1 has measured Activity not below 20%. Thanks!
A: Not fulfilled

Q: Say whether O=C1NCCN1c1ccc(S(=O)(=O)Oc2cccc(F)c2)cc1 shows Activity of 20% or more.
A: Not fulfilled

Q: Could you verify whether the entry O=C1NCCN1c1ccc(S(=O)(=O)Oc2cc(Cl)c(Cl)cc2Cl)cc1 shows Activity of no less than 20%?
A: Not fulfilled
